Where do the numbers come from? From patent US20250026849A1.

As shown below, each of these binders has a reported ELISA_avg value.
Target desc: T1, BCMA (Homo sapiens (Human), UniProt Q02223 1-54, limits assumed)
T1 sequence: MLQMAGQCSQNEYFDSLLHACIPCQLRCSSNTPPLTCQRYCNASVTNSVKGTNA
Method notes: ELISA, format not described
Design: unit not given here
Recorded endpoint: ELISA_avg

>>> reported_measurement("D-domain SEQ ID NO: 220 (designed binder) MGSWVEFDERLSAIRERLDALGGSEAELAAFEKEIAAFESELQAYKGKGNPEVEYLRLYAAQIRVFLQAYRHN")
5.61
>>> reported_measurement("D-domain SEQ ID NO: 174 (designed binder) MGSWYEFQLRLWAIHWRLIALGGSEAELAAFEKEIAAFESELQAYKGKGNPEVEWLRMRAAEIRNELQAYRHN")
20.6
>>> reported_measurement("D-domain SEQ ID NO: 90 (designed binder) MGSWTEFHDRLEAITHRLNALGGSEAELAAFEKEIAAFESELQAYKGKGNPEVEELRYSAALLRVFLQAYRHN")
5.79
